study_system: Glutamate receptor ionotropic, NMDA 2B (Homo sapiens, UniProt Q13224)
Sequence (Q13224 whole entry): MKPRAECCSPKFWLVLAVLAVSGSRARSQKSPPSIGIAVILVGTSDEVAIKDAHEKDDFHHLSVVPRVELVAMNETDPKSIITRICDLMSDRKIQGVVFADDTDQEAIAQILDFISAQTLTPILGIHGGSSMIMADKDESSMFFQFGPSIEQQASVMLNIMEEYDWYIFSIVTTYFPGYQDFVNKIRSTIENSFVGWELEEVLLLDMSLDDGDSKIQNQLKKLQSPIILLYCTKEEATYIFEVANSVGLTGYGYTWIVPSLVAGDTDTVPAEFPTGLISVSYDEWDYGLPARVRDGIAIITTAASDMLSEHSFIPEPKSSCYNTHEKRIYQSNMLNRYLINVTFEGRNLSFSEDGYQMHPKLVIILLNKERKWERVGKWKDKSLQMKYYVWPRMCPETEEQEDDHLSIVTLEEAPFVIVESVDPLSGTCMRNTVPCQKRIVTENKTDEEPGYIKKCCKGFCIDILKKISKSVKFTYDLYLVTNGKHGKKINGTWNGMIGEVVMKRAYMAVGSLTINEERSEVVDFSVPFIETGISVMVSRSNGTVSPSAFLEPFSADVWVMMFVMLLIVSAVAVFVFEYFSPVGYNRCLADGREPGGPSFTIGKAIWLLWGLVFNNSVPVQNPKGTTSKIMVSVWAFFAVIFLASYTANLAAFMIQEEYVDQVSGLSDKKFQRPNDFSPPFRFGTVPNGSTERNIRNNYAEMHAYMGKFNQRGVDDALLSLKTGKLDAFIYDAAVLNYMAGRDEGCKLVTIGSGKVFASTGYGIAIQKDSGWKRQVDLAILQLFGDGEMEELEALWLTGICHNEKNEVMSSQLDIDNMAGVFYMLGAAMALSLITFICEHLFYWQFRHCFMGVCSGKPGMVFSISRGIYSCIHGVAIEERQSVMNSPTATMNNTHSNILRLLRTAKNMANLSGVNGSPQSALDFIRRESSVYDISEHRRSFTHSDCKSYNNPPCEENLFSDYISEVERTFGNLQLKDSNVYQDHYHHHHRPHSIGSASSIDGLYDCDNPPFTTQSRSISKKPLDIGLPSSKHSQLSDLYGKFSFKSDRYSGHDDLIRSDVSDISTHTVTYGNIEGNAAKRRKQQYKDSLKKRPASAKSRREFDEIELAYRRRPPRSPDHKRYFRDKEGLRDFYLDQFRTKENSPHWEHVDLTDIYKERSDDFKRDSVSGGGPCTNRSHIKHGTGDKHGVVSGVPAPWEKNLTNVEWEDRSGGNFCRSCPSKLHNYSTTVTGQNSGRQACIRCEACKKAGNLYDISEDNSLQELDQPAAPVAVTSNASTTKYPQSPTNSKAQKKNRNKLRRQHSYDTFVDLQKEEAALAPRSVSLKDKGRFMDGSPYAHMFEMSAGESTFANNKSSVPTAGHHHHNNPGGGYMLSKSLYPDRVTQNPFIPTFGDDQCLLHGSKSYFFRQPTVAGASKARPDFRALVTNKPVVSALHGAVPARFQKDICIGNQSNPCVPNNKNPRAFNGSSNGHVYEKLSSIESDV
assay_remarks: Displacement of [3H]ifenprodil from recombinant human GluN2B expressed in mouse L(tk-) cell membranes incubated for 120 mins by microbeta scintillation counting analysis
test_readout: pKi
// scale note: pKi = -log10(conc_M); give the bare number

get_value(item= Cn1c(=O)n(C)c2cc3c(cc21)CCCC(NCCCc1ccccc1)C3 (racemic) , readout=pKi) returns 6.16
